Experiment: yeast AGP1-GFP level changes, GLN3 branch – cell-based, multiplex flow cytometry, S. cerevisiae, primary screen (AID 1887);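 note: AGP1-GFP fusion strain of S. cerevisiae within a five-strain barcoded multiplex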
Details: 3 h, at 10 µM, stronger effect = higher value
Records with an inconclusive call do not appear.

compound: CC(=O)[C@@]1(O)CC[C@H]2[C@@H]3C[C@H](C)C4=CC(=O)CC[C@]4(C)[C@H]3CC[C@@]21C
GFP response, % of DMSO [%]: 96.6
//
compound: CC(C)OC(=O)CC12CN3CN(C1)CC(CC(=O)OC(C)C)(C3)C2=O
GFP response, % of DMSO [%]: 105
//
compound: O=C(OCC1CCCN2CCCCC12)c1ccc2c(c1)OCO2 (stereo not given)
GFP response, % of DMSO [%]: 95.9
//
compound: CSc1ccc(/C=N/N2CCN(Cc3ccc(C)cc3C)CC2)cc1
GFP response, % of DMSO [%]: 96.3
//
compound: COc1ccc(C2C3CCCCC3(O)CCN2C(=O)c2cccs2)cc1 (stereo not given)
GFP response, % of DMSO [%]: 107
